Numbers sourced from patent US20250376535A1.

Biological target: T1, EGFR Fc (human, UniProt P00533 25-645)
T1 construct: also called EGFR-hFc; recombinant human EGFR-Fc
Experiment: ELISA, EGFR Fc coated, VHH at 0.08 nM
value_type: OD450
Field format: numeric only.

Some solved cases for reference:
binder="pgEG-SX56 (VHH, not shown: small tags and cut ends) VHH: QVQLVESGGGFVQAGGSLRLSCAASGRFLSIADMDWYRRVPGKQRELVASITRAGDTALEDSVKGRFTISRDNAKNTVHLQMNSVKPEDTAVYYCRADVTRSGTPYFEVWGQGTLVTVSS" value_type=OD450 meas_value=1.15
binder="pgEG-SX52 (VHH, not shown: small tags and cut ends) VHH: QVQLVESGGGLVKAGKSLRLSCAASVSSFDTYTMGWYRQAPGKQREQVAIITPGAGTHYADSVKGRFTISRDNAKNTVYLQMSSLKLEDTAVYYCKARHRITGYDYWGQGTQVTVSS" value_type=OD450 meas_value=1.07
binder="pgEG-SX57 (VHH, not shown: small tags and cut ends) VHH: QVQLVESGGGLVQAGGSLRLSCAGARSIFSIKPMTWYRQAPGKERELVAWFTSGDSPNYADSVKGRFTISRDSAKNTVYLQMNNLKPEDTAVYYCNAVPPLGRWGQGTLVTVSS" value_type=OD450 meas_value=2.37

Let's switch to this binder now.
Q: What does the record list as OD450 for pgEG-SX22 (VHH, not shown: small tags and cut ends) VHH: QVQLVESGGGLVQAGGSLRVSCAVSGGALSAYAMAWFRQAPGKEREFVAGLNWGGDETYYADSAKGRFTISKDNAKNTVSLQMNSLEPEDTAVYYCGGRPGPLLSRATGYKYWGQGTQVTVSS ?
Ans: 1.43
